- System Under Test: T1, cyno FcRn/b2M (cyno, UniProt Q8SPV9 24-297; Q8SPW0 21-119, biotinylated)
- T1 construct: bought recombinant biotinylated protein (Immunitrack ITF05 or ACRO FCM-C82W5); also called cFcRn; cFcRn/cb2M
- T1 sequence (Q8SPV9 24-297 limits assumed, chain 1 of 2): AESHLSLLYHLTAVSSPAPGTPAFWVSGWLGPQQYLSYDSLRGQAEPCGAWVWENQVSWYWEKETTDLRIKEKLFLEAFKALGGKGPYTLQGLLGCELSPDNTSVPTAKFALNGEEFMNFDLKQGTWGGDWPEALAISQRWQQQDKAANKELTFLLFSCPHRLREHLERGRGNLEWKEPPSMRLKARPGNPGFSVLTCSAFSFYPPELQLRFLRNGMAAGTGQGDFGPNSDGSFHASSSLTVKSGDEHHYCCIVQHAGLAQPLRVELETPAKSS
- T1 sequence (Q8SPW0 21-119 limits assumed, chain 2 of 2): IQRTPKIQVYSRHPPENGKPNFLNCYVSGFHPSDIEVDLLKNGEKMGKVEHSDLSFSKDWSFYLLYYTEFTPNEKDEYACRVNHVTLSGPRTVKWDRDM
- Procedure Text: SPR off-rate; pH 7.4 vs pH 6.0;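 also: surface plasmon resonance with diluted periplasmic extracts flowed over ligand surfaces, 120 s association and 600–3600 s dissociation at 25 °C, running buffer containing 150 mM NaCl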
Reported Endpoint: kd ratio pH 7.4/6.0

Query block: So what's the measured kd ratio pH 7.4/6.0 for this one? T0263018B11 W100cM (VHH, name in Kabat numbering, FLAG3-His6 tagged) VHH: EVQLVESGGGVVQPGGSLRLSCAASGFTFSSYAMYWVRQAPGKGLEWVSAISSGGGSTDYADSVKGRFTISRDNSKNTLYLQMNSLRPEDTALYYCAADTLYTSLTMYSYWGQGTLVTVSS
Result block: 59

Query block: So what's the measured kd ratio pH 7.4/6.0 for this one? T0263018B11 T28Y (VHH, name in Kabat numbering, FLAG3-His6 tagged) VHH: EVQLVESGGGVVQPGGSLRLSCAASGFYFSSYAMYWVRQAPGKGLEWVSAISSGGGSTDYADSVKGRFTISRDNSKNTLYLQMNSLRPEDTALYYCAADTLYTSLTWYSYWGQGTLVTVSS
Result block: 79

Query block: So what's the measured kd ratio pH 7.4/6.0 for this one? T0263018B11 T96I (VHH, name in Kabat numbering, FLAG3-His6 tagged) VHH: EVQLVESGGGVVQPGGSLRLSCAASGFTFSSYAMYWVRQAPGKGLEWVSAISSGGGSTDYADSVKGRFTISRDNSKNTLYLQMNSLRPEDTALYYCAADILYTSLTWYSYWGQGTLVTVSS
Result block: 57

Query block: So what's the measured kd ratio pH 7.4/6.0 for this one? T0263018B11 F29H (VHH, name in Kabat numbering, FLAG3-His6 tagged) VHH: EVQLVESGGGVVQPGGSLRLSCAASGFTHSSYAMYWVRQAPGKGLEWVSAISSGGGSTDYADSVKGRFTISRDNSKNTLYLQMNSLRPEDTALYYCAADTLYTSLTWYSYWGQGTLVTVSS
Result block: 42
